Taken from PubChem BioAssay.

Measured viability, listed per entry for reference.
# testProtocol: drug combination growth inhibition, ovarian cancer – cell-based, oncology-focused library, rucaparib conditional, profiling panel (AID 1508598)
# experimentalSetup: patient-derived ovarian cancer cells, CellTiter-Glo viability, 144 h; at 0.000305 µM; OCI-C5x cells; without rucaparib; stronger effect = lower value
Report the value in % with no unit label.

Worked cases, answers included:
CCc1cc(Nc2nccc(-c3c(-c4ccc(OC)c(C(=O)Nc5c(F)cccc5F)c4)nc4ccccn34)n2)c(OC)cc1N1CCC(N2CCN(S(C)(=O)=O)CC2)CC1 | 127
CN(NC(=O)CC(=O)NN(C)C(=S)c1ccccc1)C(=S)c1ccccc1 | 108
Fc1cc(-c2cccc3ncc(-c4cnn(C5CCNCC5)c4)nc23)cc(F)c1CN1CCOCC1 | 114
Cc1cc2c(F)c(Oc3ncnn4cc(OC[C@@H](C)O)c(C)c34)ccc2[nH]1 | 131
CN1CCN(CCOc2cc(OC3CCOCC3)c3c(Nc4c(Cl)ccc5c4OCO5)ncnc3c2)CC1 | 98.5

Look at this compound and give its reported viability. Nc1cccc2c1C(=O)N(C1CCC(=O)NC1=O)C2=O (centres undefined) 124

I'd like to know its viability. The compound in question is C#Cc1cccc(Nc2ncnc3cc(OCCOC)c(OCCO)cc23)c1 140

GET /values?readout=viability&item= Cc1ccc(F)c(NC(=O)Nc2ccc(-c3cccc4[nH]nc(N)c34)cc2)c1 114

// viability lookup, key: CCOc1cc2ncc(C#N)c(Nc3ccc(F)c(Cl)c3)c2cc1NC(=O)/C=C/CN(C)C 129

###

# testProtocol: viability loss with induced miR-34 in A549 – imaging, A549 dox-inducible miR-34, nuclei and caspase counts, primary screen (AID 1347080)
# experimentalSetup: A549 miR-34 inducible, Hoechst nuclei count, 48 h; measured here: total cells without miR-34 induction
The reader will find reported cell count values listed item by item below.
Write the number on its own, no unit after it.

O=C(NCCN1CCCCC1)c1ccc(I)cc1 | 9760

For the compound shown here, Nc1nc(OCc2cc(Br)cs2)c2[nH]cnc2n1 , give the reported cell count. 8940

Find the recorded cell count belonging to CCCCCCCCCCCCCCCC(=O)OC[C@@H](O)COP(=O)(O)O and report it. 5850

For COc1ccc2[nH]c(I)c(CCNC(C)=O)c2c1 , what is its reported cell count? 9460

Please report the recorded cell count for COC(=O)C(Cc1ccc(OCCn2c(=O)sc3cc(C(=O)c4ccccc4)ccc32)cc1)C(=O)OC . 9020

###

# testProtocol: JHH-DIPG-1 glioma cell viability, MIPE5.0 library, CellTiter-Glo luminescence, qHTS (AID 1347067);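 also: cells exposed to compound for 48 hours before readout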
# experimentalSetup: JHH-DIPG-1 glioma viability, CellTiter-Glo ATP luminescence
Inconclusive results are not listed. Active and inactive are the calls of the source. Cut-off not given; nearly all actives show AC50 up to about 26 µM.
readout: AC50

Field: example entries. Status: answers known.
NC(=O)c1ccccc1Nc1ccnc(Nc2cccc(O)c2)n1 | 18.6 µM (active)
O=C(Nc1ccc2c(c1)CCN(Cc1ncn[nH]1)C2)c1ccccc1-c1ccc(C(F)(F)F)cc1 | inactive
CCOc1cc(/C=C2/C(=O)N(c3ccccc3)N=C2C)cc(Cl)c1OCC(=O)OC | inactive
NCc1c[nH]c(=S)n1[C@H]1CCc2c(F)cc(F)cc2C1 | inactive
C#CC[C@H](c1nc2cc(Cl)ccc2c(=O)n1Nc1ccccc1)N(CCCN)C(=O)c1cccc(Cl)c1F | 0.742 µM (active)
CC(C)C[C@@H](N)[C@H](O)C(=O)N[C@H](C(=O)N[C@H](C(=O)N[C@@H](CC(=O)O)C(=O)O)C(C)C)C(C)C | inactive

Request the reported AC50 associated with Cc1ccc(C(=O)Nc2ccc(CN3CCN(C)CC3)c(C(F)(F)F)c2)cc1C#Cc1cnc2cccnn12 2.35 µM (active)

So what does the record say about AC50 for O=C(c1ccc(Nc2nc(C3CC3)cn3c(-c4cn[nH]c4)cnc23)c(F)c1)N1CCOCC1 ? 2.63 µM (active)

Using the record for CCc1c(-c2ccccc2C)nc2c(C#N)c[nH]n2c1=O , report its AC50. inactive
